System: Fibroblast
Experiment: Multiplex assay against human fibroblast
Format: toxicity, cell-based
Conditions: 24 h, 1 µM, compound concentration 1 uM, replicate 2
PARAMETER MEASURED: Total Cell Count
Keep it simple and answer with nothing but the number.

Previously resolved entries follow.
{"COMPOUND": "CCC(=O)OCC(=O)[C@@]1(OC(=O)CC)[C@@H](C)C[C@H]2[C@@H]3CCC4=CC(=O)C=C[C@]4(C)[C@@]3(Cl)[C@@H](O)C[C@@]21C [BECLOMETHASONE DIPROPIONATE]", "Total Cell Count": 150}
{"COMPOUND": "Cl.Cl.OCCOCCN1CCN(C(c2ccccc2)c2ccc(Cl)cc2)CC1 (centres undefined) [HYDROXYZINE HYDROCHLORIDE]", "Total Cell Count": 154}
{"COMPOUND": "CN1CCN(c2ccc(Nc3c4ccccc4nc4ccccc34)cc2)CC1.Cl.Cl.O", "Total Cell Count": 155}

Next:
Inquiry: Short answer please: Total Cell Count, Fibroblast, entry Cc1cc(NC(=O)NCCN2CCC(O)(Cc3ccccc3)CC2)c2ccccc2n1
Reply text: 119
